- EXPERIMENT NOTES: Plasma concentration in mouse model of capsaicin-induced pain at 60 mg/kg, po during von Frey test
- Assay type: ADME, organism-based
- CONDITION DESCRIPTION: in vivo
PARAMETER MEASURED: concentration (µM)
// note: answer is a bare numeric in µM

// query concentration value for entry `Cc1nn([C@@H]2CCN([C@H](C)c3cc(Cl)cc(Cl)c3)C2)c2cc(F)c(C(=O)NS(=O)(=O)C3CC3)cc12`
31.1

###

- EXPERIMENT NOTES: Plasma concentration in mouse model of pain at 60 mg/kg, po during Randall-Selitto test
- Format: ADME, organism-based
- CONDITION DESCRIPTION: in vivo
PARAMETER MEASURED: concentration (µM)
Give the number; µM is assumed, so skip it.

Reported concentration for `Cc1nn([C@@H]2CCN([C@H](C)c3cc(Cl)cc(Cl)c3)C2)c2cc(F)c(C(=O)NS(=O)(=O)C3CC3)cc12` : what is it?
49.3

All figures here come from ChEMBL document CHEMBL4321785.
